The measured values listed here are drawn from patent US20240190824A1.

target: human TREK-1 (Homo sapiens (Human)); assay: TREK-1 Thallium (Tl+) flux assay; settings: CHO-K1 cells stably expressing human TREK-1
Sequence (O95069 whole entry): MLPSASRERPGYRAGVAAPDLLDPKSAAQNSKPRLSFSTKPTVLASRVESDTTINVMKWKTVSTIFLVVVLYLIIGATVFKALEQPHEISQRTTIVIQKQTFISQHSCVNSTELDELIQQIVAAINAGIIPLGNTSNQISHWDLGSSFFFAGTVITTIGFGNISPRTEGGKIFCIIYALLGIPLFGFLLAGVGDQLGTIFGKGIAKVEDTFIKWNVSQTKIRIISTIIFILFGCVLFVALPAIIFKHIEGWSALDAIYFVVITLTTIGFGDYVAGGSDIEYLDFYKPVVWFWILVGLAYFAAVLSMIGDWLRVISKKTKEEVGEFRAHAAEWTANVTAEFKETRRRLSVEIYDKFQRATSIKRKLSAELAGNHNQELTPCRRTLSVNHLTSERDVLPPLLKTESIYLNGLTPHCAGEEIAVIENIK
pIC50: −log10 of the molar value.

[
  {
    "compound": "Cc1cc(C#Cc2ccccn2)cnc1NC(=O)c1cc(NC(=O)OC(C)(C)C)ccc1Cl [Compound 15]",
    "pIC50": 6.43
  },
  {
    "compound": "Cc1cc(C#Cc2ccccc2)cnc1NC(=O)c1cc(OC[C@@H]2COCCO2)ccc1Cl [Compound 23]",
    "pIC50": 6.68
  },
  {
    "compound": "O=C(Nc1ncc(C#Cc2ccccc2)cc1F)c1cc(-c2cnn(C3CCOCC3)c2)ccc1Cl [Compound 55]",
    "pIC50": 7.00
  },
  {
    "compound": "Cc1cc(C#Cc2ccccc2)cnc1N1Cc2ccc(NC(=O)OC(C)(C)C)cc2C1=O [Compound 44]",
    "pIC50": 6.24
  },
  {
    "compound": "O=C(Nc1ncc(C#Cc2ccccc2)cc1F)c1cc(NC(=O)C2COCCO2)ccc1Cl (centres unmarked) [Compound 10]",
    "pIC50": 6.70
  },
  {
    "compound": "Cc1ccc(NC(=O)OC(C)(C)C)cc1C(=O)Nc1ncc(C#Cc2ccccc2)cc1C [Compound 46]",
    "pIC50": 6.06
  },
  {
    "compound": "Cc1cc(C#Cc2ccccc2)cnc1NC(=O)c1cc(OCC2CCOCC2)ccc1Cl [Compound 20]",
    "pIC50": 7.05
  },
  {
    "compound": "CC(C)(C)OC(=O)Nc1ccc(Cl)c(C(=O)Nc2ncc(C#Cc3ccccc3)cc2F)n1 [Compound 38]",
    "pIC50": 6.36
  }
]

====

// IC50 lookup, one value per entry
target: human TREK-1 (Homo sapiens (Human)); test: TREK-1 Thallium (Tl+) flux assay; assay type: cell-based; settings: CHO-K1 cells stably expressing human TREK-1
reported_property: IC50 (nM)

[
  {
    "molecule": "Cc1cc(C#Cc2ccccc2)cnc1NC(=O)c1cc(NC(=O)[C@@H]2C[C@H]2C)ccc1Cl",
    "reported_property": "IC50",
    "readout_units": "nM",
    "numeric_result": 420
  },
  {
    "molecule": "Cc1cc(-c2cnn(-c3ccc(F)cc3)c2)cnc1NC(=O)c1cc(NC(=O)OC(C)(C)C)ccc1Cl",
    "reported_property": "IC50",
    "readout_units": "nM",
    "numeric_result": 200
  },
  {
    "molecule": "Cc1cc(C#Cc2ccccc2)cnc1N1Cc2ccc(OCC3COCCO3)cc2C1=O (stereo not shown)",
    "reported_property": "IC50",
    "readout_units": "nM",
    "numeric_result": 360
  },
  {
    "molecule": "Cc1cc(C#Cc2ccccc2)cnc1NC(=O)c1cc(NC(=O)OC(C)(C)C)ccc1Cl",
    "reported_property": "IC50",
    "readout_units": "nM",
    "numeric_result": 140
  }
]

====

// pIC50 lookup, one value per entry
biological target: human TREK-1 (Homo sapiens (Human)); test: TREK-1 Thallium (Tl+) flux assay; conditions: CHO-K1 cells stably expressing human TREK-1
pIC50: −log10 of the molar value.

[
  {
    "compound": "Cc1cc(C#Cc2ccccc2)cnc1NC(=O)c1cc(C(=O)N2CC(C)(C)C2)ccc1Cl [Compound 60]",
    "pIC50": 6.85
  },
  {
    "compound": "Cc1nc(C)c(-c2ccc(Cl)c(C(=O)Nc3ncc(C#Cc4ccccc4)cc3F)c2)s1 [Compound 67]",
    "pIC50": 6.68
  },
  {
    "compound": "C[C@H]1C[C@@H]1C(=O)Nc1ccc(Cl)c(C(=O)Nc2ncc(C#Cc3cccc(F)c3)cc2F)c1 [Compound 4]",
    "pIC50": 6.89
  },
  {
    "compound": "Cc1cc(C#Cc2ccccc2)cnc1NC(=O)c1cc(-c2cnn(C3CCOC3)c2)ccc1Cl (stereo not drawn) [Compound 66]",
    "pIC50": 6.66
  },
  {
    "compound": "Cc1cc(-c2noc(-c3ccc(F)cc3)n2)cnc1NC(=O)c1cc(NC(=O)OC(C)(C)C)ccc1Cl [Compound 95]",
    "pIC50": 6.64
  },
  {
    "compound": "Cc1ncc(-c2ccc(Cl)c(C(=O)Nc3ncc(C#Cc4ccccc4)cc3C)c2)s1 [Compound 75]",
    "pIC50": 6.35
  },
  {
    "compound": "Cc1cc(OCc2ccccc2)cnc1NC(=O)c1cc(NC(=O)OC(C)(C)C)ccc1Cl [Compound 87]",
    "pIC50": 6.25
  },
  {
    "compound": "Cc1cc(C#Cc2ccccc2)cnc1NC(=O)c1cc(C(=O)N2CCCC2C)ccc1Cl (stereo not drawn) [Compound 69]",
    "pIC50": 6.64
  },
  {
    "compound": "CC(C)(C)OC(=O)Nc1ccc(Cl)c(C(=O)Nc2ncc(-c3cnn(-c4ccccc4)c3)cc2F)c1 [Compound 97]",
    "pIC50": 6.54
  },
  {
    "compound": "Cc1noc(-c2ccc(Cl)c(C(=O)Nc3ncc(C#Cc4ccccc4)cc3C)c2)n1 [Compound 63]",
    "pIC50": 6.70
  },
  {
    "compound": "Cc1cc(C#Cc2cccnc2)cnc1NC(=O)c1cc(NC(=O)OC(C)(C)C)ccc1Cl [Compound 41]",
    "pIC50": 6.28
  },
  {
    "compound": "CC(C)(C)OC(=O)Nc1ccc(Cl)c(C(=O)Nc2ncc(-c3cc(-c4ccccc4)no3)cc2F)c1 [Compound 96]",
    "pIC50": 6.64
  },
  {
    "compound": "Cc1cc(C#Cc2cccc(F)c2)cnc1NC(=O)c1cc(NC(=O)C2COCCO2)ccc1Cl (stereo not drawn) [Compound 13]",
    "pIC50": 6.55
  },
  {
    "compound": "Cc1cc(C#Cc2ccccc2)cnc1NC(=O)c1cc(-c2c(C)cnn2C)ccc1Cl [Compound 76]",
    "pIC50": 6.35
  },
  {
    "compound": "Cc1cc(C#Cc2ccccc2)cnc1NC(=O)c1cc(-c2cnn(C3COC3)c2)ccc1Cl [Compound 58]",
    "pIC50": 6.89
  },
  {
    "compound": "CCn1ccc(-c2ccc(Cl)c(C(=O)Nc3ncc(C#Cc4ccccc4)cc3C)c2)n1 [Compound 64]",
    "pIC50": 6.70
  },
  {
    "compound": "Cc1cc(C#Cc2ccc(F)cc2)cnc1NC(=O)c1cc(NC(=O)C2COCCO2)ccc1Cl (stereo not drawn) [Compound 14]",
    "pIC50": 6.64
  },
  {
    "compound": "Cc1cc(C#Cc2ccccc2)cnc1NC(=O)c1cc(-c2nc(C3CC3)no2)ccc1Cl [Compound 57]",
    "pIC50": 6.89
  },
  {
    "compound": "O=C(Nc1ncc(C#Cc2ccccc2)cc1F)c1cc(OC[C@H]2COCCO2)ccc1Cl [Compound 80]",
    "pIC50": 7.22
  },
  {
    "compound": "Cc1cc(C#Cc2ccccc2)cnc1NC(=O)c1cc(NC(=O)OC(C)(C)C)cnc1Cl [Compound 52]",
    "pIC50": 5.66
  },
  {
    "compound": "Cc1cc(C#Cc2ccccc2)cnc1NC(=O)c1cc(-c2cnn(C)c2)ccc1Cl [Compound 78]",
    "pIC50": 6.33
  }
]
